Data origin: paper PMC9030932

biological target: human serotonin transporter (hSERT) (Homo sapiens); assay: Neurotransmitter transporter uptake assay, HEK-hSERT; assay type: cell-based; conditions: 10 μM, HEK-hSERT, mean ± SEM, n = 3–6; read-out: % Inhibition at 10 μM hSERT

| MOLECULE | inhibition at 10 µM |
| --- | --- |
| CN1c2ccccc2C(NCCCCCCCC=CCc2c[nH]c3ccccc23)c2ccc(Cl)cc2S1(=O)=O (stereo not shown) | 26.3% |
| COc1ccc2[nH]cc(CCNC(=O)CCCCCCNC3c4ccccc4N(C)S(=O)(=O)c4cc(Cl)ccc43)c2c1 (stereo not shown) | 39.7% |
| CN1c2ccccc2C(NCCCCCCC(=O)NCCc2c[nH]c3ccccc23)c2ccc(Cl)cc2S1(=O)=O (stereo not shown) | 50.3% |
| CN1c2ccccc2C(NCCc2c[nH]c3ccc(O)cc23)c2ccc(Cl)cc2S1(=O)=O (stereo not shown) | 37.5% |

---

target: human serotonin transporter (hSERT) (Homo sapiens); test: Neurotransmitter transporter uptake assay, HEK-hSERT; format: cell-based; conditions: 10 μM, HEK-hSERT, mean ± SEM, n = 3–6; read-out: % Inhibition at 10 μM hSERT
// inhibition at 10 µM lookup, one value per entry

| MOLECULE | UOM | inhibition at 10 µM |
| --- | --- | --- |
| CN1c2ccccc2C(NCC(=O)NCCc2c[nH]c3ccc(O)cc23)c2ccc(Cl)cc2S1(=O)=O (stereo not shown) [Compound 11a] | % | 50.9 |
| CN1c2ccccc2C(NCCCC(=O)NCCc2c[nH]c3ccc(O)cc23)c2ccc(Cl)cc2S1(=O)=O (stereo not shown) [Compound 11c] | % | 35.5 |
| CN1c2ccccc2C(NCCCCCCCCCCc2c[nH]c3ccccc23)c2ccc(Cl)cc2S1(=O)=O (stereo not shown) | % | 17.9 |
| CC(C)C[C@H](CNC(=O)CCCCCCNC1c2ccccc2N(C)S(=O)(=O)c2cc(Cl)ccc21)CC(=O)O (stereo partly shown) | % | 11.3 |

---

// IC50 lookup, one value per entry
target: human serotonin transporter (hSERT) (Homo sapiens, UniProt P31645); assay: Neurotransmitter transporter uptake assay, HEK-hSERT; type: cell-based; conditions: HEK-hSERT, neurotransmitter uptake, mean ± SEM, n = 3–6; read-out: IC50 hSERT
Sequence (P31645 whole entry): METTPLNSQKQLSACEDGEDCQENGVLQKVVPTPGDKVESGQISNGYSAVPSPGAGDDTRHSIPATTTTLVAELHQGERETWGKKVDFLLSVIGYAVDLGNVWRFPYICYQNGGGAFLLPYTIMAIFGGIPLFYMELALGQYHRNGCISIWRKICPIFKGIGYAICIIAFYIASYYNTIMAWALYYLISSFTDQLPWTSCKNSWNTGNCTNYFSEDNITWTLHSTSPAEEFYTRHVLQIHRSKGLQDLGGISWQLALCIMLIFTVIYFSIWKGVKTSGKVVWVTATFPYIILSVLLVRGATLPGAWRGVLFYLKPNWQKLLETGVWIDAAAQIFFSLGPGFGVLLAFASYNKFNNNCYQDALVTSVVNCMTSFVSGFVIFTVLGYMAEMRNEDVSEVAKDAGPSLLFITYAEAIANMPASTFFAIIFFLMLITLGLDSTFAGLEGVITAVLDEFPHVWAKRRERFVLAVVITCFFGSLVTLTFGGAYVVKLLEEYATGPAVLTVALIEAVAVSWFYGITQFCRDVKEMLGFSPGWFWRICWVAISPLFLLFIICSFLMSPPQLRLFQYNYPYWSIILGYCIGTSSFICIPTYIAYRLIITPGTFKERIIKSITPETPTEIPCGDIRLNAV

| COMPOUND | TARGET_OR_TEST_SYSTEM | IC50 (µM) |
| --- | --- | --- |
| CN1c2ccccc2C(NCCCCCCCNCCc2c[nH]c3ccc(O)cc23)c2ccc(Cl)cc2S1(=O)=O (centres unmarked) | human serotonin transporter (hSERT) (Homo sapiens, UniProt P31645) | 0.07 |
| CN1c2ccccc2C(NCCCCC(=O)NCCc2c[nH]c3ccc(O)cc23)c2ccc(Cl)cc2S1(=O)=O (centres unmarked) [Compound 11d] | human serotonin transporter (hSERT) (Homo sapiens, UniProt P31645) | 10.1 |

---

target: human dopamine transporter (hDAT) (Homo sapiens, UniProt Q01959); assay: Neurotransmitter transporter uptake assay, HEK-hDAT
Sequence (Q01959 whole entry): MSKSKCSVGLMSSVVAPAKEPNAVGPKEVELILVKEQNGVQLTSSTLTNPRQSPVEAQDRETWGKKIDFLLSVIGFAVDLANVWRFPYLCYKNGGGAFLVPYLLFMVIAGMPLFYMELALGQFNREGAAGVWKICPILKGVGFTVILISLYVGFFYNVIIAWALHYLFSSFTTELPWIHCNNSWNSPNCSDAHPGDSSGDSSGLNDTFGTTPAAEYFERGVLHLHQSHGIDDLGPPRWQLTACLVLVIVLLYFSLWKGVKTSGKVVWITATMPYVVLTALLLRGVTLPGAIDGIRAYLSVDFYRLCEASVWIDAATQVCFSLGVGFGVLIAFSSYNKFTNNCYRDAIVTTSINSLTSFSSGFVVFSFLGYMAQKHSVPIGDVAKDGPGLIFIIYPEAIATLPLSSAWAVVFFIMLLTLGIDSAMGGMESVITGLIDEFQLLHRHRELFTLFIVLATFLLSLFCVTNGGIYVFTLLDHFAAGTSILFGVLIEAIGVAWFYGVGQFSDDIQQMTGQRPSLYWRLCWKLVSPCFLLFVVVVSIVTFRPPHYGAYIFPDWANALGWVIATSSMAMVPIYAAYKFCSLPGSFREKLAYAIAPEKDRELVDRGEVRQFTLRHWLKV

| MOLECULE | IC50 / µM |
| --- | --- |
| CN1c2ccccc2C(NCCCCCCCNCCc2c[nH]c3ccc(C#N)cc23)c2ccc(Cl)cc2S1(=O)=O (stereo not shown) | 4.98 |
| CN1c2ccccc2C(NCCCCCCC(=O)NCCc2c[nH]c3ccc(O)cc23)c2ccc(Cl)cc2S1(=O)=O (stereo not shown) | 9.66 |
| CN1c2ccccc2C(NCCCCCCC(=O)NCCc2c[nH]c3ccccc23)c2ccc(Cl)cc2S1(=O)=O (stereo not shown) | 3.81 |
| CN1c2ccccc2C(NCCCCCCCNCCc2c[nH]c3ccc(O)cc23)c2ccc(Cl)cc2S1(=O)=O (stereo not shown) | 2.01 |

---

// recovery at 30 min, 1 µM lookup, one value per entry
test: In vitro metabolic stability, human; format: in vitro ADME; details: human, pH 7.4; % remaining after 30 min incubation with S9 microsomal fraction

| COMPOUND | recovery at 30 min, 1 µM |
| --- | --- |
| CN1c2ccccc2C(NCCCCCCC(=O)NCCc2c[nH]c3ccc(O)cc23)c2ccc(Cl)cc2S1(=O)=O (centres unmarked) | 5% |
| CN1c2ccccc2C(NCCCCCCCNCCc2c[nH]c3ccc(O)cc23)c2ccc(Cl)cc2S1(=O)=O (centres unmarked) | 0% |

---

molecular target: human dopamine transporter (hDAT) (Homo sapiens, UniProt Q01959); test: Neurotransmitter transporter uptake assay, HEK-hDAT; type: cell-based; details: read-out: % Inhibition at 10 μM hDAT
REPORTED_PROPERTY: inhibition at 10 µM

| COMPOUND | MEASURED_RESULT |
| --- | --- |
| CN1c2ccccc2C(NCCC(=O)NCCc2c[nH]c3ccc(O)cc23)c2ccc(Cl)cc2S1(=O)=O (stereo not drawn) [Compound 11b] | 44.9% |
| CN1c2ccccc2C(NCCc2c[nH]c3ccc(O)cc23)c2ccc(Cl)cc2S1(=O)=O (stereo not drawn) [Compound 7] | 36.2% |
| CN1c2ccccc2C(NCCCCCCCC=CCc2c[nH]c3ccccc23)c2ccc(Cl)cc2S1(=O)=O (stereo not drawn) [Compound 21] | 8.92% |
| CN(CCCCCCCNC1c2ccccc2N(C)S(=O)(=O)c2cc(Cl)ccc21)CCC(Oc1ccc(C(F)(F)F)cc1)c1ccccc1 (stereo not drawn) [Compound 26] | 23.6% |
| CN1c2ccccc2C(NCCCCCCCCCCc2c[nH]c3ccccc23)c2ccc(Cl)cc2S1(=O)=O (stereo not drawn) [Compound 22] | 1.95% |
| CN1c2ccccc2C(NCCCC(=O)NCCc2c[nH]c3ccc(O)cc23)c2ccc(Cl)cc2S1(=O)=O (stereo not drawn) [Compound 11c] | 41.3% |

---

molecular target: human serotonin transporter (hSERT) (Homo sapiens, UniProt P31645); test: Neurotransmitter transporter uptake assay, HEK-hSERT; format: cell-based
// IC50 lookup, one value per entry

| COMPOUND | TARGET_OR_TEST_SYSTEM | IC50 |
| --- | --- | --- |
| CN1c2ccccc2C(NCCCCCCC(=O)NCCc2c[nH]c3ccc(O)cc23)c2ccc(Cl)cc2S1(=O)=O (centres unmarked) | human serotonin transporter (hSERT) (Homo sapiens, UniProt P31645) | 0.258 µM |
| CN1c2ccccc2C(NCCCCCC(=O)NCCc2c[nH]c3ccc(O)cc23)c2ccc(Cl)cc2S1(=O)=O (centres unmarked) [Compound 11e] | human serotonin transporter (hSERT) (Homo sapiens, UniProt P31645) | 6.74 µM |
| CN1c2ccccc2C(NCCCCCCCNCCc2c[nH]c3ccc(C#N)cc23)c2ccc(Cl)cc2S1(=O)=O (centres unmarked) | human serotonin transporter (hSERT) (Homo sapiens, UniProt P31645) | 0.462 µM |
| CN1c2ccccc2C(NCCC(=O)NCCc2c[nH]c3ccc(O)cc23)c2ccc(Cl)cc2S1(=O)=O (centres unmarked) [Compound 11b] | human serotonin transporter (hSERT) (Homo sapiens, UniProt P31645) | 4.08 µM |
| CN(CCCCCCCNC1c2ccccc2N(C)S(=O)(=O)c2cc(Cl)ccc21)CCC(Oc1ccc(C(F)(F)F)cc1)c1ccccc1 (centres unmarked) | human serotonin transporter (hSERT) (Homo sapiens, UniProt P31645) | 2.18 µM |

---

molecular target: hOPRM1 receptor (Homo sapiens); assay: PathHunter CHO-K1 OPRM1 β-arrestin recruitment assay
Sequence (P35372 whole entry): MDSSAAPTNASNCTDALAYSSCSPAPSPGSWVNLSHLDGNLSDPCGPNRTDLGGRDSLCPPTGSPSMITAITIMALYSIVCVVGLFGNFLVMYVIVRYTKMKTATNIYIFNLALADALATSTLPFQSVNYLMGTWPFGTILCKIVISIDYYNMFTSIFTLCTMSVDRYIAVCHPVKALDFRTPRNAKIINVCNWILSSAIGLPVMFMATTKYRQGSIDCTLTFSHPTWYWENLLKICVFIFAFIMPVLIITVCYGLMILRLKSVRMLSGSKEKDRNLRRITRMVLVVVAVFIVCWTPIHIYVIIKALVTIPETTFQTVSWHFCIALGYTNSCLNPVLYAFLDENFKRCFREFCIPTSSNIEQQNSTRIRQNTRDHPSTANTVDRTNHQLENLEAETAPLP
pEC50: −log10 of the molar value.
// pEC50 lookup, one value per entry

| COMPOUND | TARGET_OR_TEST_SYSTEM | READING_QUALIFIER | pEC50 |
| --- | --- | --- | --- |
| CN1c2ccccc2C(NCCCCCCCNCCc2c[nH]c3ccc(C#N)cc23)c2ccc(Cl)cc2S1(=O)=O (stereo not drawn) | hOPRM1 receptor (Homo sapiens) | = | 5.48 |
| CN1c2ccccc2C(NCCCCCCC(=O)NCCc2c[nH]c3ccc(O)cc23)c2ccc(Cl)cc2S1(=O)=O (stereo not drawn) | hOPRM1 receptor (Homo sapiens) | = | 6.87 |
| CN1c2ccccc2C(NCCCCCCC(=O)O)c2ccc(Cl)cc2S1(=O)=O (stereo not drawn) [Tianeptine, reference compound] | hOPRM1 receptor (Homo sapiens) | < | 5.30 |
| CN(CCCCCCCNC1c2ccccc2N(C)S(=O)(=O)c2cc(Cl)ccc21)CCC(Oc1ccc(C(F)(F)F)cc1)c1ccccc1 (stereo not drawn) | hOPRM1 receptor (Homo sapiens) | < | 5.00 |
| CN1c2ccccc2C(NCCCCCCCCCCc2c[nH]c3ccccc23)c2ccc(Cl)cc2S1(=O)=O (stereo not drawn) | hOPRM1 receptor (Homo sapiens) | < | 5.00 |
| CN1c2ccccc2C(NCCCCCCCC=CCc2c[nH]c3ccccc23)c2ccc(Cl)cc2S1(=O)=O (stereo not drawn) | hOPRM1 receptor (Homo sapiens) | < | 5.00 |
| CN1c2ccccc2C(NCCCCCCCNCCc2c[nH]c3ccc(O)cc23)c2ccc(Cl)cc2S1(=O)=O (stereo not drawn) | hOPRM1 receptor (Homo sapiens) | = | 5.81 |
| CC(C)C[C@H](CNC(=O)CCCCCCNC1c2ccccc2N(C)S(=O)(=O)c2cc(Cl)ccc21)CC(=O)O (stereo partly drawn) | hOPRM1 receptor (Homo sapiens) | < | 5.00 |
| CN1c2ccccc2C(NCCCCCCC(=O)NCCc2c[nH]c3ccccc23)c2ccc(Cl)cc2S1(=O)=O (stereo not drawn) | hOPRM1 receptor (Homo sapiens) | = | 6.95 |
